assay: Observed volume of distribution at steady state in C57BL/6J mouse at 1 mg/kg, iv measured at 0.05 to 24 hrs by LC-MS/MS analysis
Assay type: ADME, organism-based
details: in vivo, time 0.05-24 hrs, read-out: Vdss
observation_type: Vd

Which Vd is listed for CCOc1cc(CN2CCC(F)(CNc3ccc(C(=O)O)c(OC)c3)CC2)cc(OCC)c1-c1ccc(F)cc1 ?
2.6 L/kg

###

assay: Observed AUC (0 to infinity) in C57BL/6J mouse at 1 mg/kg, iv measured at 0.05 to 24 hrs by LC-MS/MS analysis
Assay type: ADME, organism-based
details: in vivo, time 0.05-24 hrs
observation_type: AUC(0-inf) (ng·h/mL)
Give a bare numeral; the unit ng·h/mL is implied.

Which AUC(0-inf) is listed for CCOc1cc(CN2CCC(F)(CNc3ccc(C(=O)O)c(OC)c3)CC2)cc(OCC)c1-c1ccc(F)cc1 ?
562

###

study_target: Somatostatin receptor type 5 (Mus musculus, UniProt O08858)
Sequence (O08858 whole entry): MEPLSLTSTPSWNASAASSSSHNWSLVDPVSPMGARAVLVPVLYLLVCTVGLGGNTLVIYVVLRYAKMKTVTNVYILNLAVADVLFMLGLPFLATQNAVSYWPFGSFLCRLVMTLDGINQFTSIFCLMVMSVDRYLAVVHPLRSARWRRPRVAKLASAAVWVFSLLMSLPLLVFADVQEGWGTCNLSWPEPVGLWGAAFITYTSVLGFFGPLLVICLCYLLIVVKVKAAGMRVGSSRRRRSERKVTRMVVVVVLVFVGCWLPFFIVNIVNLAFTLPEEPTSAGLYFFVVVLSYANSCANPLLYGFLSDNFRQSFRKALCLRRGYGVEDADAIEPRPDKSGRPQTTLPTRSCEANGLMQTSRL
assay: Antagonist activity at N-terminal HA-tagged mouse SSTR5 expressed in CHO cells assessed as change in intracellular […] level preincubated with agonist for 10 mins followed by compound addition by CRE-driven luciferase reporter based microplate reader
observation_type: IC50 (µM)
Give a bare numeral; the unit µM is implied.

Answered cases to consult:
{"compound": "CN(C)C(=O)C(CCN1CCC(O)(c2ccc(Cl)cc2)CC1)(c1ccccc1)c1ccccc1 [LOPERAMIDE]", "unit_of_measure": "µM", "IC50": 63.6}
{"compound": "CCOc1cc(CN2CCC(O)(c3ccc(Cl)cc3)CC2)cc(OCC)c1-c1ccc(F)cc1", "unit_of_measure": "µM", "IC50": 11.1}
{"compound": "CCOc1cc(CN2CCC(C)(C(=O)Nc3ccc(C(=O)O)cc3)CC2)cc(OCC)c1-c1ccc(F)cc1", "unit_of_measure": "µM", "IC50": 12.2}

Now for the compound whose IC50 we want.
Which IC50 is listed for CCOc1cc(CN2CCC(C(=O)Nc3ccc(C(=O)O)cc3)CC2)cc(OCC)c1-c1ccc(F)cc1 ?
0.853

###

assay: Metabolic stability in human liver microsomes assessed as parent compound remaining at 1 uM incubated for 30 mins in presence of NADPH by LC-MS/MS analysis
Format: ADME, Microsome
details: read-out: Stability
observation_type: remaining at 0.5 h, 1 µM (%)
Give a bare numeral; the unit % is implied.

Which remaining at 0.5 h, 1 µM is listed for CCOc1cc(CN2CCC(F)(CNc3ccc(C(=O)O)c(OC)c3)CC2)cc(OCC)c1-c1ccc(F)cc1 ?
92.5

###

assay: Tmax in C57BL/6J mouse at 3 mg/kg, po measured at 0.25 to 24 hrs by LC-MS/MS analysis
Format: ADME, organism-based
details: in vivo, time 0.25-24 hrs
observation_type: Tmax (min)
Give a bare numeral; the unit min is implied.

Which Tmax is listed for CCOc1cc(CN2CCC(F)(CNc3ccc(C(=O)O)c(OC)c3)CC2)cc(OCC)c1-c1ccc(F)cc1 ?
19.8

###

assay: Observed AUC (0 to infinity) in C57BL/6J mouse at 3 mg/kg, po measured at 0.25 to 24 hrs by LC-MS/MS analysis
Format: ADME, organism-based
details: in vivo, time 0.25-24 hrs
observation_type: AUC(0-inf) (ng·h/mL)
Give a bare numeral; the unit ng·h/mL is implied.

Which AUC(0-inf) is listed for CCOc1cc(CN2CCC(F)(CNc3ccc(C(=O)O)c(OC)c3)CC2)cc(OCC)c1-c1ccc(F)cc1 ?
494

###

assay: Observed clearance in C57BL/6J mouse at 1 mg/kg, iv measured at 0.05 to 24 hrs by LC-MS/MS analysis
Type: ADME, organism-based
details: in vivo, time 0.05-24 hrs
observation_type: clearance (mL/min/kg)
Give a bare numeral; the unit mL/min/kg is implied.

Which clearance is listed for CCOc1cc(CN2CCC(F)(CNc3ccc(C(=O)O)c(OC)c3)CC2)cc(OCC)c1-c1ccc(F)cc1 ?
30.5

###

assay: Cytotoxicity against CHO cells assessed as cellular ATP at 10 uM relative to control
Type: toxicity, cell-based, Cricetulus griseus
details: chinese hamster, read-out: Activity
observation_type: viability at 10 µM (%)
Give a bare numeral; the unit % is implied.

Which viability at 10 µM is listed for CCOc1cc(CN2CCC(F)(CNc3ccc(C(=O)O)c(OC)c3)CC2)cc(OCC)c1-c1ccc(F)cc1 ?
92

###

assay: Half-life in C57BL/6J mouse at 3 mg/kg, po measured at 0.25 to 24 hrs by LC-MS/MS analysis
Type: ADME, organism-based
details: in vivo, time 0.25-24 hrs
observation_type: half-life
Answer with the number, then the unit.

Which half-life is listed for CCOc1cc(CN2CCC(F)(CNc3ccc(C(=O)O)c(OC)c3)CC2)cc(OCC)c1-c1ccc(F)cc1 ?
3.58 h

###

Measured IC50 of individual entries
study_target: Somatostatin receptor type 5 (Homo sapiens)
Sequence (P35346 whole entry): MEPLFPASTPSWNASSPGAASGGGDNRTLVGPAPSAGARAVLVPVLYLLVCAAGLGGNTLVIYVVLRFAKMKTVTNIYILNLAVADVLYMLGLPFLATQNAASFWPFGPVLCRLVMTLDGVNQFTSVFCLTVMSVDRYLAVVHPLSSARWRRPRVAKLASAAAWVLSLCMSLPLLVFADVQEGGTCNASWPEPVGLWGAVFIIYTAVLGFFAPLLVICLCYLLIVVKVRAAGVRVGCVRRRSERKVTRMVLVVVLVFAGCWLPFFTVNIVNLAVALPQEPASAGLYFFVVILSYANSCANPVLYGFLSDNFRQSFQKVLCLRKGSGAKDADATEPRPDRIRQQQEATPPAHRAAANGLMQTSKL
assay: Antagonist activity at N-terminal HA-tagged human SSTR5 expressed in CHO cells assessed as change in intracellular […] level preincubated with agonist for 10 mins followed by compound addition by CRE-driven luciferase reporter based microplate reader
Give a bare numeral; the unit nM is implied.

Answered cases to consult:
{"compound": "CN(C)C(=O)C(CCN1CCC(O)(c2ccc(Cl)cc2)CC1)(c1ccccc1)c1ccccc1 [LOPERAMIDE]", "assay_result": 33100}
{"compound": "CCOc1cc(CN2CCC(C)(COc3ccc(C(=O)O)cc3)CC2)cc(OCC)c1-c1ccc(F)cc1", "assay_result": 3410}
{"compound": "CCOc1cc(CN2CCC(F)(CNc3ccc(C(=O)O)cc3)CC2)cc(OCC)c1-c1ccc(F)cc1", "assay_result": 27.6}
{"compound": "CCOc1cc(CN2CCC(O)(C(=O)Nc3ccc(C(=O)O)cc3)CC2)cc(OCC)c1-c1ccc(F)cc1", "assay_result": 22900}
{"compound": "CCOc1cc(CN2CCC(F)(CNc3ccc(C(=O)O)c(OC)c3)CC2)cc(OCC)c1-c1ccc(F)cc1", "assay_result": 2.8}

Now for the compound whose IC50 we want.
Which IC50 is listed for CCOc1cc(CN2CC(Nc3ccc(C(=O)O)cc3)C2)cc(OCC)c1-c1ccc(F)cc1 ?
1010

###

study_target: Somatostatin receptor type 5 (Mus musculus, UniProt O08858)
Sequence (O08858 whole entry): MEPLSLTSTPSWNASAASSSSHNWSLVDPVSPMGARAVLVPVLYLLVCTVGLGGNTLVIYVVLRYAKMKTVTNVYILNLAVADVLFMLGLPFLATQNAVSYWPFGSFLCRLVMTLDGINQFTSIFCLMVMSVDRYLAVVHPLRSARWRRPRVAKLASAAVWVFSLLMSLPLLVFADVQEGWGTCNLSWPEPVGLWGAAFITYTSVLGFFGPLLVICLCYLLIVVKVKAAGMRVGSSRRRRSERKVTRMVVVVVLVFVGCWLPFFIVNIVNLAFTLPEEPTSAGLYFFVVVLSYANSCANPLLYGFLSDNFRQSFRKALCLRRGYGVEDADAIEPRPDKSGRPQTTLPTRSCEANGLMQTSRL
assay: Antagonist activity at N-terminal HA-tagged mouse SSTR5 expressed in CHO cells assessed as change in intracellular […] level preincubated with agonist for 10 mins followed by compound addition by CRE-driven luciferase reporter based microplate reader
observation_type: pIC50
Quick note: pIC50 values are minus log10 of concentrations in mol/L.

Answered cases to consult:
{"entry_smiles": "CCOc1cc(CN2CCC(F)(CNc3ccc(C(=O)O)cc3)CC2)cc(OCC)c1-c1ccc(F)cc1", "assay_result": 7.86}
{"entry_smiles": "CCOc1cc(CN2CCC(C)(CNc3ccc(C(=O)O)cc3)CC2)cc(OCC)c1-c1ccc(F)cc1", "assay_result": 6.89}
{"entry_smiles": "CCOc1cc(CN2CC(Nc3ccc(C(=O)O)cc3)C2)cc(OCC)c1-c1ccc(F)cc1", "assay_result": 6.74}
{"entry_smiles": "CCOc1cc(CN2CCC(F)(CNc3ccc(O)cc3)CC2)cc(OCC)c1-c1ccc(F)cc1", "assay_result": 5.89}

Now for the compound whose pIC50 we want.
Which pIC50 is listed for CCOc1cc(CN2CCC(F)(CNc3ccc(C(=O)O)c(OC)c3)CC2)cc(OCC)c1-c1ccc(F)cc1 ?
8.85
